src = ChEMBL document CHEMBL4118189

target: Histone deacetylase 9 (Homo sapiens, UniProt Q9UKV0); assay: Inhibition of full length recombinant human HDAC9 using fluorescent-labeled peptide as substrate by electrophoretic mobility shift assay
Sequence (Q9UKV0 whole entry): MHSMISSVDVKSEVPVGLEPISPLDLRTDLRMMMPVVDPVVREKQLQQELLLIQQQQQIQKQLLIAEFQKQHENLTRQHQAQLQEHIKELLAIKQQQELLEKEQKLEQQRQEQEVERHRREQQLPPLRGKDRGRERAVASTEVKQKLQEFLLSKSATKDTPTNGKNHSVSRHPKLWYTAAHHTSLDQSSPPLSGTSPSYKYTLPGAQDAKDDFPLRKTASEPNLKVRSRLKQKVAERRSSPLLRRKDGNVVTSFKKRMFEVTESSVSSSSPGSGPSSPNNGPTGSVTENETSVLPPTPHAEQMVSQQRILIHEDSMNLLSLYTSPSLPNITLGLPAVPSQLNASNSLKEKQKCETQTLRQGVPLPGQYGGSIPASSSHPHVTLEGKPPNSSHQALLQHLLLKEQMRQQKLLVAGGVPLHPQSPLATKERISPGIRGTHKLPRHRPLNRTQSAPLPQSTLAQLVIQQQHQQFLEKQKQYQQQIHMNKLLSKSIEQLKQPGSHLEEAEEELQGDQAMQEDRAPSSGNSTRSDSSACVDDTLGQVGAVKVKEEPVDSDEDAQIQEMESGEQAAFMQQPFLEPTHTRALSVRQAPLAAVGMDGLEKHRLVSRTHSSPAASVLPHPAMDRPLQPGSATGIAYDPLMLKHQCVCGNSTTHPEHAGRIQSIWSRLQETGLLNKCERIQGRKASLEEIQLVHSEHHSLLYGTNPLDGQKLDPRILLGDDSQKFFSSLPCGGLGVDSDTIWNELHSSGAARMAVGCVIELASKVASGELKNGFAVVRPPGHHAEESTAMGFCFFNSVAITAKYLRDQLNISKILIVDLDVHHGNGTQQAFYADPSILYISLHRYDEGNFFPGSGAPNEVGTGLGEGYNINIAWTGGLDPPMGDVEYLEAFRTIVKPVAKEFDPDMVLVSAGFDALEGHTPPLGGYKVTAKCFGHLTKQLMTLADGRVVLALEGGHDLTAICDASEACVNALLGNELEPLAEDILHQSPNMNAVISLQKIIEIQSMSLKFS
pIC50: −log10 of the molar value.
RECORDED ENDPOINT: pIC50

- COMPOUND: "CC1(C)c2cccc(C(=O)NO)c2CN1c1cnc(C(F)(F)F)cn1"
  pIC50: "< 5.00"

Please turn your attention to the following entry.
Req: Using the record for CC1(C)c2cccc(C(N)=O)c2CN1c1cnc(C(F)(F)F)cn1 , report its pIC50.
Resp: < 5.00

* * *

Molecular target: Protein deacetylase HDAC6 (Homo sapiens)
Sequence (Q9UBN7 whole entry): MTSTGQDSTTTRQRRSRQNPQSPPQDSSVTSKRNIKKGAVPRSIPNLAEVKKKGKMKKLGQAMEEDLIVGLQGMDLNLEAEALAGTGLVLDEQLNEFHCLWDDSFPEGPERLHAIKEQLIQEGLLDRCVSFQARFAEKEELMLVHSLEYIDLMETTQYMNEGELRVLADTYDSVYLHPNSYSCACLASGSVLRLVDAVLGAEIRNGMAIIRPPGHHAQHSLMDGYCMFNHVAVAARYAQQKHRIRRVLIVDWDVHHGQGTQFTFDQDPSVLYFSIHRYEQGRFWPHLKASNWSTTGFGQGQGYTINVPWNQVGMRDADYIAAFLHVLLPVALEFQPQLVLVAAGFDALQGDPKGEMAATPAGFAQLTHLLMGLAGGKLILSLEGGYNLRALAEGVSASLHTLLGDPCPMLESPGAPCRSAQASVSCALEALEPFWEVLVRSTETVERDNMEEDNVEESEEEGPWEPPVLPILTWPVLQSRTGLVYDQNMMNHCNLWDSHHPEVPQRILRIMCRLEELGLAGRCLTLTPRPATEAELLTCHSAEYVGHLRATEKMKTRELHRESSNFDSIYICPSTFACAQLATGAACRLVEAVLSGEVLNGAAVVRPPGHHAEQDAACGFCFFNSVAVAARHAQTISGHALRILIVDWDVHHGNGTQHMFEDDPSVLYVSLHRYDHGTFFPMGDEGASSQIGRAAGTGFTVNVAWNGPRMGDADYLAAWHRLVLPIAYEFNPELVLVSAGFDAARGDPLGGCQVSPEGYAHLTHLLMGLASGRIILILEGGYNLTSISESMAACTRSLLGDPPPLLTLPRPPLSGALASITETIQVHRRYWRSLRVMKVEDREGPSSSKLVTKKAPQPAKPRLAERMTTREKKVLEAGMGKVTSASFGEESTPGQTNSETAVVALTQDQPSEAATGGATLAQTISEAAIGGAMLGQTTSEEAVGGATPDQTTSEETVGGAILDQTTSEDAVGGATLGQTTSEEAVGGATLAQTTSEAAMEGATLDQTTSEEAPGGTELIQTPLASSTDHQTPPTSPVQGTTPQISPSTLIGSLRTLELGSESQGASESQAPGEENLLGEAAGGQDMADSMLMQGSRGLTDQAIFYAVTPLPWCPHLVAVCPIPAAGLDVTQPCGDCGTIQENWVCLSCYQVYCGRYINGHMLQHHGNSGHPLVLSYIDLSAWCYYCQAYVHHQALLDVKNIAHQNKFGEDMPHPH
Experiment: Inhibition of full length recombinant human HDAC6 using fluorescent-labeled peptide as substrate by electrophoretic mobility shift assay
pIC50: −log10 of the molar value.
RECORDED ENDPOINT: pIC50

- COMPOUND: "CC1(C)c2cccc(C(N)=O)c2CN1c1cnc(C(F)(F)F)cn1"
  pIC50: "< 5.00"
- COMPOUND: "O=C(NO)c1cccc2c1CCN(c1nc3ccccc3[nH]1)C2"
  pIC50: "< 5.00"
- COMPOUND: "CC1(C)c2cccc(C(=O)NO)c2CN1c1cnc(C(F)(F)F)cn1"
  pIC50: "< 5.00"

Req: Using the record for O=C(NO)c1cccc2c1CN(c1nc3ccccc3[nH]1)C2 , report its pIC50.
Resp: < 5.00
